Test description: Inhibition of HCV 1a isolate H77 NS5B polymerase by Microbeta scintillation counter
Set-up: species or system Hepatitis C virus subtype 1a
# maps each entry to its pIC50
The scale used: pIC50 is minus the common logarithm of the concentration in molar units.

Name the reported pIC50 value associated with the compound CC(C)CCN1C(=O)C(C2=NS(=O)(=O)c3cc(NS(C)(=O)=O)ccc3N2)=C(O)C2CCCCC21 (racemic)
7.33

Let us now turn to CS(=O)(=O)Nc1ccc2c(c1)S(=O)(=O)N=C(C1=C(O)[C@@H]3CCCC[C@@H]3N(Cc3ccc(F)cc3)C1=O)N2
7.37

Would you kindly repeat that for Cc1cc(CN2C(=O)C(C3=NS(=O)(=O)c4cc(NS(C)(=O)=O)ccc4N3)=C(O)[C@H]3CCC[C@H]32)ccc1F ?
7.55

Let us now turn to CS(=O)(=O)Nc1ccc2c(c1)S(=O)(=O)N=C(C1=C(O)[C@H]3CCCC[C@H]3N(Cc3ccc(F)cc3)C1=O)N2
7.20

// query: CS(=O)(=O)Nc1ccc2c(c1)S(=O)(=O)N=C(C1=C(O)C3CCCCCC3N(Cc3ccc(F)cc3)C1=O)N2 (racemic)
7.38

// query: CS(=O)(=O)Nc1ccc2c(c1)S(=O)(=O)N=C(C1=C(O)C3CCCC3N(Cc3ccc(F)cn3)C1=O)N2 (racemic)
6.72

Next compound: CS(=O)(=O)Nc1ccc2c(c1)S(=O)(=O)N=C(C1=C(O)[C@H]3CCC[C@H]3N(Cc3ccc(F)c(F)c3)C1=O)N2
7.54

Please give the result for CS(=O)(=O)Nc1ccc2c(c1)S(=O)(=O)N=C(C1=C(O)C3CCCC3N(Cc3cccc(F)c3)C1=O)N2 (racemic) too.
6.89

Try this compound next: CC(C)CCN1C(=O)C(C2=NS(=O)(=O)c3cc(NS(C)(=O)=O)ccc3N2)=C(O)[C@H]2CCC[C@H]21
7.29

====

Test description: Ratio of plasma concentration in po dosed cynomolgus monkey after 12 hrs to EC50 for HCV 1b
Format: ADME, organism-based
Measurement conditions: in vivo
# Ratio per entry
Just the number, please.

{"Compound": "CS(=O)(=O)Nc1ccc2c(c1)S(=O)(=O)N=C(C1=C(O)C3CCCCCC3N(Cc3ccc(F)cc3)C1=O)N2 (racemic)", "Ratio": 0.37}
{"Compound": "CS(=O)(=O)Nc1ccc2c(c1)S(=O)(=O)N=C(C1=C(O)[C@@H]3CCCC[C@@H]3N(Cc3ccc(F)cc3)C1=O)N2", "Ratio": 0.03}
{"Compound": "CC(C)(C)CCN1C(=O)C(C2=NS(=O)(=O)c3cc(NS(C)(=O)=O)ccc3N2)=C(O)C2CCCC21 (racemic)", "Ratio": 0.19}

Report Ratio for CC(C)(C)CCN1C(=O)C(C2=NS(=O)(=O)c3cc(NS(C)(=O)=O)ccc3N2)=C(O)C2CCCCC21 (racemic) please.
0.11

And CS(=O)(=O)Nc1ccc2c(c1)S(=O)(=O)N=C(C1=C(O)[C@H]3CCCC[C@H]3N(Cc3ccc(F)cc3)C1=O)N2 ?
0.9

Also, CS(=O)(=O)Nc1ccc2c(c1)S(=O)(=O)N=C(C1=C(O)[C@H]3CCC[C@H]3N(Cc3ccc(F)c(F)c3)C1=O)N2 please.
1.33

====

Item-by-item account of half-life
Test description: Metabolic stability in monkey liver microsomes assessed as half life
Assay type: ADME, Macaca mulatta, Microsome
Measurement conditions: rhesus monkey

Use the examples below as a reference point.
{"Molecule": "CS(=O)(=O)Nc1ccc2c(c1)S(=O)(=O)N=C(C1=C(O)[C@H]3CCC[C@H]3N(Cc3ccc(F)cc3)C1=O)N2", "half-life": "> 60 min"}
{"Molecule": "CS(=O)(=O)Nc1ccc2c(c1)S(=O)(=O)NC(C1=C(O)[C@@H]3CCC[C@@H]3N(Cc3ccc(F)cc3)C1=O)=N2", "half-life": "> 60 min"}

Please find the next molecule below.
Which half-life is reported for this molecule? CC(C)CCN1C(=O)C(C2=NS(=O)(=O)c3cc(NS(C)(=O)=O)ccc3N2)=C(O)C2CCCCC21 (racemic)
44 min

====

Test description: Metabolic stability in human liver microsomes assessed as half life
Format: ADME, Microsome
# key: entry, value: half-life

# annotated cases, reported half-life shown
{"Molecule": "CS(=O)(=O)Nc1ccc2c(c1)S(=O)(=O)N=C(C1=C(O)C3CCCC3N(CCC3CC3)C1=O)N2 (racemic)", "half-life": "25 min"}
{"Molecule": "CS(=O)(=O)Nc1ccc2c(c1)S(=O)(=O)N=C(C1=C(O)C3CCCC3N(Cc3ccccc3)C1=O)N2 (racemic)", "half-life": "50 min"}
{"Molecule": "CS(=O)(=O)Nc1ccc2c(c1)S(=O)(=O)N=C(C1=C(O)C3CCCC3N(Cc3ccccn3)C1=O)N2 (racemic)", "half-life": "> 60 min"}
{"Molecule": "CS(=O)(=O)Nc1ccc2c(c1)S(=O)(=O)N=C(C1=C(O)[C@H]3CCCC[C@H]3N(Cc3ccc(F)cc3)C1=O)N2", "half-life": "> 60 min"}
{"Molecule": "CS(=O)(=O)Nc1ccc2c(c1)S(=O)(=O)N=C(C1=C(O)[C@H]3CCC[C@H]3N(Cc3ccc(F)c(F)c3)C1=O)N2", "half-life": "> 60 min"}
{"Molecule": "Cc1cc(CN2C(=O)C(C3=NS(=O)(=O)c4cc(NS(C)(=O)=O)ccc4N3)=C(O)[C@H]3CCC[C@H]32)ccc1F", "half-life": "> 60 min"}

As a next step, examine the molecule that follows.
Report half-life for CC(C)(C)CCN1C(=O)C(C2=NS(=O)(=O)c3cc(NS(C)(=O)=O)ccc3N2)=C(O)C2CCCCC21 (racemic) please.
16 min

====

Test description: Metabolic stability in human liver microsomes assessed as compound remaining at 1 uM after 60 mins
Assay type: ADME, Microsome
Measurement conditions: read-out: Stability
Reported remaining at 1 h, 1 µM is given for each of the following compounds.
Express the result in % but write the number alone.

Below, 3 compounds whose answers are already recorded.
{"Compound": "CS(=O)(=O)Nc1ccc2c(c1)S(=O)(=O)N=C(C1=C(O)[C@H]3CCC[C@H]3N(Cc3ccc(C(F)(F)F)cc3)C1=O)N2", "Test readout": "remaining at 1 h, 1 µM", "Measurement units": "%", "Result value": 85}
{"Compound": "CN(C)CCN1C(=O)C(C2=NS(=O)(=O)c3cc(NS(C)(=O)=O)ccc3N2)=C(O)C2CCCC21 (racemic)", "Test readout": "remaining at 1 h, 1 µM", "Measurement units": "%", "Result value": 97}
{"Compound": "CS(=O)(=O)Nc1ccc2c(c1)S(=O)(=O)N=C(C1=C(O)C3CCCC3N(Cc3ccccn3)C1=O)N2 (racemic)", "Test readout": "remaining at 1 h, 1 µM", "Measurement units": "%", "Result value": 76}

What measured remaining at 1 h, 1 µM goes with CS(=O)(=O)Nc1ccc2c(c1)S(=O)(=O)N=C(C1=C(O)[C@H]3CCC[C@H]3N(Cc3ccc(F)cc3)C1=O)N2 ?
85

====

Test description: Clearance in cynomolgus monkey at 1 mg/kg, iv
Format: ADME, organism-based, Macaca fascicularis
Set-up: dose 1 mg/kg, route intravenous
Measurement conditions: in vivo
Test readout: clearance (mL/min/kg)
Report the value in mL/min/kg with no unit label.

Some solved entries appear below for comparison.
{"Compound": "CS(=O)(=O)Nc1ccc2c(c1)S(=O)(=O)N=C(C1=C(O)C3CCCCCC3N(Cc3ccc(F)cc3)C1=O)N2 (racemic)", "Test readout": "clearance", "Measurement units": "mL/min/kg", "Result value": 4.1}
{"Compound": "CC(C)(C)CCN1C(=O)C(C2=NS(=O)(=O)c3cc(NS(C)(=O)=O)ccc3N2)=C(O)C2CCCC21 (racemic)", "Test readout": "clearance", "Measurement units": "mL/min/kg", "Result value": 4.3}

Then there is this compound:
Consider the compound shown here: CS(=O)(=O)Nc1ccc2c(c1)S(=O)(=O)N=C(C1=C(O)[C@@H]3CCCC[C@@H]3N(Cc3ccc(F)cc3)C1=O)N2 What is its recorded clearance?
1.7

====

Test description: Inhibition of HCV 1a isolate H77 NS5B polymerase by Microbeta scintillation counter
Design: species or system Hepatitis C virus subtype 1a
Test readout: IC50 (nM)
Give just the numeric value; nM need not be written.

These recorded examples may help you get a feel for the data.
{"Compound": "CS(=O)(=O)Nc1ccc2c(c1)S(=O)(=O)N=C(C1=C(O)[C@H]3CCC[C@H]3N(Cc3ccc(F)c(Cl)c3)C1=O)N2", "IC50 / nM": 28}
{"Compound": "CC(C)(C)CCN1C(=O)C(C2=NS(=O)(=O)c3cc(NS(C)(=O)=O)ccc3N2)=C(O)C2CCCCCC21 (racemic)", "IC50 / nM": 73}

Let's switch to this compound now.
Which IC50 value belongs to CC(C)(C)CCN1C(=O)C(C2=NS(=O)(=O)c3cc(NS(C)(=O)=O)ccc3N2)=C(O)C2CCCCC21 (racemic) ?
66
